- Test system: LXRb:RXRa (NR concentration 270 nM, RXRa partner concentration 90 nM)
- experiment: PBM binding z-score (relative to random genomic background probes); higher = stronger binding; sequences stand for … in GC…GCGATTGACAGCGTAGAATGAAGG

[
  {
    "sequence record": "CCTTACGGGTCAATCCAGGTTATAGCATCGGAGT",
    "PBM binding z-score": 4.05
  },
  {
    "sequence record": "CCTACTGGGCCAAAGGTCAATGATTCCAATGCTC",
    "PBM binding z-score": 4.52
  },
  {
    "sequence record": "AATACAGGGTCATCGTAGGCGAGAGTACGCACAG",
    "PBM binding z-score": 4.6
  },
  {
    "sequence record": "AGAATCAGGTTACCAAAGATCAGGGAAACGCTTG",
    "PBM binding z-score": 1.12
  },
  {
    "sequence record": "CGTCCAAGCTCAAGGTCAGTGAAAGAGACTCGAA",
    "PBM binding z-score": 1.25
  },
  {
    "sequence record": "ATCTCTAGGTAACCAAGTTCAGTGGATGCCGAAC",
    "PBM binding z-score": 0.38
  },
  {
    "sequence record": "CACACAGGGTCAGCTAGGCCAGAGTAGGGACGGC",
    "PBM binding z-score": 2.18
  },
  {
    "sequence record": "CCTACTGGGCCAAAGGTAATTGATTCCAATGCTC",
    "PBM binding z-score": -0.0867
  },
  {
    "sequence record": "CGTCCAAGGACAAAGGTCAGTGAAGAGATGACGG",
    "PBM binding z-score": 2.85
  },
  {
    "sequence record": "TCGAGTAGGTTACCAATGGGGCATGCAGCTTTCT",
    "PBM binding z-score": 0.567
  },
  {
    "sequence record": "CGAACTAGGTCATTGACAGGACTGTGAATAGTAA",
    "PBM binding z-score": 1.81
  },
  {
    "sequence record": "GATACAGGGTCAGCTAGCGGCCAGAGTATGGAAA",
    "PBM binding z-score": 2.34
  },
  {
    "sequence record": "GGAACGAGGGCAAGGTGATAGCAGAGTTTGATGG",
    "PBM binding z-score": 0.183
  },
  {
    "sequence record": "CGAACTAGGTCAAGGATAGTGAATCTCCGCACGC",
    "PBM binding z-score": 1.36
  },
  {
    "sequence record": "CTACCAAGGTGAACAAGGTCGTTTATTACTATTC",
    "PBM binding z-score": 2.61
  },
  {
    "sequence record": "CCGAGTAGGTTCTGGGGCATTCAGGCAACGGTGA",
    "PBM binding z-score": -0.391
  },
  {
    "sequence record": "TCATATAGGTAATACAGGTGAACGTCGGCATCTA",
    "PBM binding z-score": 1.15
  },
  {
    "sequence record": "CAGCCTATGTCAGGGCCAGTATAGGAGGAACGTT",
    "PBM binding z-score": -0.524
  },
  {
    "sequence record": "ACAGACAGGTGGTGAAGGTAACTCAGGCTATCAT",
    "PBM binding z-score": -0.0742
  },
  {
    "sequence record": "TCTTGAAGATCAAGCAGGTTAAGAAAGCCTGAGT",
    "PBM binding z-score": 0.402
  },
  {
    "sequence record": "GCTAGCAGGCCATTTGGGTCAATCAATGACGGGC",
    "PBM binding z-score": 0.271
  },
  {
    "sequence record": "CGCACGAGGGCATGAGTTGATAGCAAATGCCGAT",
    "PBM binding z-score": 0.0671
  },
  {
    "sequence record": "TCTATTAATTGATTAGGGCAACCGAAACAGCGGA",
    "PBM binding z-score": 0.283
  },
  {
    "sequence record": "AGAATGAGGTTATTAAGATCCGGGAATTGCGGTC",
    "PBM binding z-score": 1.24
  },
  {
    "sequence record": "TTATATAGGTAAAGGTGAAAGTCGAACGATATGA",
    "PBM binding z-score": 1.2
  },
  {
    "sequence record": "CCTGTTAGGTCAATGGTCAGCTAAAGCAGCTCGC",
    "PBM binding z-score": 2.06
  },
  {
    "sequence record": "CTCGAAAGGTCGTGCTCAGGAGAGTATACCAAAC",
    "PBM binding z-score": 3.12
  },
  {
    "sequence record": "AGAATGAGGTTATTAAGAACAGGGAATTGCGGTC",
    "PBM binding z-score": 1.22
  },
  {
    "sequence record": "CCGACTGGGGCAAAAGTTACCATACTCAGTACGA",
    "PBM binding z-score": -0.0156
  },
  {
    "sequence record": "CTACCAAGGTGAAAAAGGTCGTTGATTACTATTC",
    "PBM binding z-score": 1.86
  },
  {
    "sequence record": "TAGCCTAGGTCATTGGGGCAGTATAGTACGCATC",
    "PBM binding z-score": 3.42
  },
  {
    "sequence record": "TAGCCTAGGTCATTCAGGGGCCAGTAAAGAAAGC",
    "PBM binding z-score": 3.17
  },
  {
    "sequence record": "TCAGACAGGTGAAGGTAACTTAGGTACGCAGTCG",
    "PBM binding z-score": 1.41
  },
  {
    "sequence record": "ATCTCTAGGTAAAGATGGTTCAGTGAATGCAAAT",
    "PBM binding z-score": 0.3
  },
  {
    "sequence record": "ATACCGAGGTGATCGTGAGGTCGTTGATACTAAC",
    "PBM binding z-score": 1.59
  },
  {
    "sequence record": "CCGACTGGGGCATAAGGTTACCGTAAGCCAGCCC",
    "PBM binding z-score": 0.83
  }
]

* * *

- Tested on: RARb homodimer (NR concentration 270 nM)
- experiment: PBM binding z-score (relative to random genomic background probes); higher = stronger binding; sequences stand for … in GC…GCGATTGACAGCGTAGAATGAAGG
Classes are defined on PBM binding z-score with ranges band 1: < 0.9; band 2: ≥ 0.9 and < 3; band 3: ≥ 3

[
  {
    "sequence record": "TCTATTAGTTGATTAGTGCAACCGAAACAGCGGA",
    "answer label": "band 1"
  },
  {
    "sequence record": "AGAATGAGGTTACCAAAGACCAGGGAAACGCTTG",
    "answer label": "band 1"
  },
  {
    "sequence record": "CGAACGAGGGCATGAGTCGATAGCAAATGCCGAT",
    "answer label": "band 1"
  },
  {
    "sequence record": "TCTTTTAGATCAATAGAGGTTAAGAAAGTGCGCT",
    "answer label": "band 2"
  },
  {
    "sequence record": "CGAACTATGTCATTGACAGGACAGTGAATAGTAA",
    "answer label": "band 1"
  },
  {
    "sequence record": "TCGAGTAGGTTAGTCGGGGCATTGAGCCAACATA",
    "answer label": "band 1"
  },
  {
    "sequence record": "AGAGTGAGGTTATTAAGATCAGGGAATTGCGGTC",
    "answer label": "band 2"
  },
  {
    "sequence record": "CCTTACGGGTCGCGAGGTTATAGCACGACGAGCG",
    "answer label": "band 2"
  },
  {
    "sequence record": "GATACAGGGTCAAGGACAGAGTACGCGTATTGAT",
    "answer label": "band 3"
  },
  {
    "sequence record": "CCTACTGGGCCATTCCGAGGTCATTGATCATATG",
    "answer label": "band 3"
  },
  {
    "sequence record": "ATCACTAGGTAAGACTCAGTTCAGTGAAGAACGC",
    "answer label": "band 1"
  },
  {
    "sequence record": "CCGACTGGCGCAGAAAGGTTACCATACCATCCGG",
    "answer label": "band 2"
  },
  {
    "sequence record": "CCGAGTAGGTTATGGGGCATTCAAGCAACGGTGA",
    "answer label": "band 1"
  },
  {
    "sequence record": "TCTCGGAGGACACGAAAGGTCACAGCTCGACATC",
    "answer label": "band 3"
  },
  {
    "sequence record": "ACAGACAGTTGATGAAGGTAACTCAGGCTATCAT",
    "answer label": "band 1"
  },
  {
    "sequence record": "CCTACTGGGCCAAGGTCAATGATCAGTCAAAGCA",
    "answer label": "band 3"
  },
  {
    "sequence record": "CGTCCAAGGTCAGAGAGGTTAGTGAATGCCGAGT",
    "answer label": "band 3"
  },
  {
    "sequence record": "CCTACTCGGCCACGAAAGGTCATTGATTCAGTGA",
    "answer label": "band 3"
  },
  {
    "sequence record": "TGTCAAAGTTCAAAGGTAACGTTAGTATCCACAC",
    "answer label": "band 3"
  },
  {
    "sequence record": "ATCTCTAGGTAAAAGTTCGGTGAATCCCGAGGAT",
    "answer label": "band 1"
  },
  {
    "sequence record": "AGTCTAAGTTCATCTAGGTAACGTAAGATATGCT",
    "answer label": "band 2"
  },
  {
    "sequence record": "CCTTACGGGTCACGAGGTTATTGCACGACGAGCG",
    "answer label": "band 3"
  },
  {
    "sequence record": "CCGTACGGGTCACTCCAGGTTATAGCATCGGAGT",
    "answer label": "band 3"
  },
  {
    "sequence record": "CGAACTACGTCAAGGACAGTGAATCTCCGCACGC",
    "answer label": "band 1"
  },
  {
    "sequence record": "ACTTACGGGTCAACGAGGTTATGGCACGCGTATA",
    "answer label": "band 3"
  },
  {
    "sequence record": "ACTCGGAGTACAAAGGTCAGAGCTACGCCAGTGA",
    "answer label": "band 3"
  },
  {
    "sequence record": "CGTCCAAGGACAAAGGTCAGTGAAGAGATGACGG",
    "answer label": "band 3"
  },
  {
    "sequence record": "CAAACTAGGTCAAGGGTCAAAGTCGAGCCAACCA",
    "answer label": "band 3"
  },
  {
    "sequence record": "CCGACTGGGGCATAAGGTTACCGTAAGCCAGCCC",
    "answer label": "band 2"
  },
  {
    "sequence record": "AGATCGAGGGCAATGAGTTGATAGCACGGGTGGC",
    "answer label": "band 2"
  },
  {
    "sequence record": "TCTTGGAGATCAGCAGGTTAAGAAAGCTGGCCAA",
    "answer label": "band 1"
  },
  {
    "sequence record": "ATATGTAGGTTAAGGGTGATTCAGGTTGGTTCGC",
    "answer label": "band 2"
  },
  {
    "sequence record": "TCTCGGGGGACACGAAAGGTCAGAGCTCGACATC",
    "answer label": "band 3"
  },
  {
    "sequence record": "CTCGAAAGGTCGTGCTCAGGTGAGTAAACCAAAC",
    "answer label": "band 2"
  },
  {
    "sequence record": "CCAGACAGGTGAAAGATAACTCAGTCTGGTACGC",
    "answer label": "band 1"
  },
  {
    "sequence record": "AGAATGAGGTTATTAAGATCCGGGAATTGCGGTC",
    "answer label": "band 1"
  },
  {
    "sequence record": "CGTTACGGGTCACGAGGTTATAGCACGACGAGCG",
    "answer label": "band 3"
  }
]
